experiment: IUF_NPC1a_proliferation_area_72hr: Leibniz Research Institute for Environmental Medicine (IUF) 72-hour Neural Progenitor Cell Proliferation Area Assay (NPC1a) (AID 2284208)
Calls of active or inactive are those of the source. Rule for the calls: active = hit-call score of the fitted dose curve at least 0.9, where 1 is the maximum; inactive = score below 0.9.
Please reply with one of these outcomes: True for active, False for inactive

Record excerpt, results attached:
COCCOCCOCCO: False
CN(C)CCOC(C)(c1ccccc1)c1ccccn1 (centres undefined): False
COCCc1ccc(OCC(O)CNC(C)C)cc1 (centres undefined): False

Name the outcome recorded for Oc1c(Cl)cc(Cl)c(Cl)c1Cc1c(O)c(Cl)cc(Cl)c1Cl in the assay.
True

---

read-out: Tissue plasminogen activator (tPA), PLAT (gene 5327); test: BSK_BE3C_tPA: BioMAP Diversity Plus: BE3C Assay for Tissue plasminogen activator (tPA) Biomarker Activity (AID 2283041); conditions: primary human bronchial epithelial cells; actives raise or lower the signal
Calls of active or inactive are those of the source. How the source made its calls: active means hit-call score of the fitted dose curve at least 0.9, where 1 is the maximum; inactive means score below 0.9.
Please reply with one of these outcomes: true = active, false = inactive

Record excerpt, results attached:
Oc1c(Cl)cc(Cl)c(Cl)c1Cc1c(O)c(Cl)cc(Cl)c1Cl: false
Cc1cc(CCC(=O)OCCOCCOCCOC(=O)CCc2cc(C)c(O)c(C(C)(C)C)c2)cc(C(C)(C)C)c1O: false
C=C(C)C(=O)OCC(CC)(COC(=O)C(=C)C)COC(=O)C(=C)C: false
CS(=O)(=O)OCCCCOS(C)(=O)=O: false
CC(C=O)Cc1ccc(C(C)(C)C)cc1 (stereo not given): true

Name the outcome recorded for COc1ccc(OC)c(N=Nc2c(O)ccc3ccccc23)c1 in the assay.
false

Name the outcome recorded for C[C@@H]1CCN(C(=O)[C@H](CCCN=C(N)N)NS(=O)(=O)c2cccc3c2NC[C@H](C)C3)[C@@H](C(=O)O)C1 in the assay.
false

Name the outcome recorded for c1ccc(Oc2ccccc2)cc1 in the assay.
false

Name the outcome recorded for CC(=O)C1(C)CC2=C(CCCC2(C)C)CC1C (stereo not given) in the assay.
true

Name the outcome recorded for C=CC(C)(O)CCC=C(C)C (stereo not given) in the assay.
false

Name the outcome recorded for CSCCC=O in the assay.
false

Name the outcome recorded for CCOC(=O)C(C#N)=C(c1ccccc1)c1ccccc1 in the assay.
false

Name the outcome recorded for CN(c1nccc(=O)[nH]1)C1CCN(c2nc3ccccc3n2Cc2ccc(F)cc2)CC1 in the assay.
false

Name the outcome recorded for CCN(CC)C(=O)N(CC)CC in the assay.
false

Name the outcome recorded for C=C(C)[C@H]1CC=C(C)C(=O)C1 in the assay.
false

Name the outcome recorded for CC=Cc1ccc(OCC)c(O)c1 in the assay.
false

Name the outcome recorded for COc1ccc(CCN2CCC(Nc3nc4ccccc4n3Cc3ccc(F)cc3)CC2)cc1 in the assay.
false

Name the outcome recorded for CC1(C)C2=CCCC(C)(C)[C@]23CC[C@H]1C3 in the assay.
true

Name the outcome recorded for CCCCOC(=O)CCCCCCCC(=O)OCCCC in the assay.
false

Name the outcome recorded for O=C1OC2(c3ccccc31)c1ccc(O)c(Br)c1Oc1c2ccc(O)c1Br in the assay.
true

Name the outcome recorded for CS(=O)(=O)c1ccc(C2=C(c3ccccc3)C(=O)OC2)cc1 in the assay.
false

Name the outcome recorded for C=C(C)C(=O)OCCOCCOCCOCCOC(=O)C(=C)C in the assay.
false

Name the outcome recorded for CN(C)C(=O)Nc1ccc(Oc2ccc(Cl)cc2)cc1 in the assay.
true

Name the outcome recorded for CCCCN(CCCC)C(=O)N(CCCC)CCCC in the assay.
true

Name the outcome recorded for CC(C)(N=C=O)c1cccc(C(C)(C)N=C=O)c1 in the assay.
false

---

experiment: BSK_3C_uPAR: BioMAP Diversity Plus: 3C Assay for Urokinase-type plasminogen activator receptor (uPAR) Biomarker Activity (AID 2282998); conditions: BioMAP 3C HUVEC, uPAR biomarker ELISA; actives raise or lower the signal
Calls of active or inactive are those of the source. The calls were made as follows: active = hit-call score of the fitted dose curve at least 0.9, where 1 is the maximum; inactive = score below 0.9.
measurement-label: AC50

Record excerpt, results attached:
CC(C)(N=C=O)c1cccc(C(C)(C)N=C=O)c1: inactive
CN(C)C(=S)SC(=S)N(C)C: 31.8 µM (active)
COc1ccc(CCN2CCC(Nc3nc4ccccc4n3Cc3ccc(F)cc3)CC2)cc1: 5 µM (active)
CC=Cc1ccc(OCC)c(O)c1: inactive
CC(CN=Cc1ccccc1O)N=Cc1ccccc1O (stereo not given): inactive

For each of the molecules below, note its AC50.
1. CCCCCCCCCCCCCCCC(=O)OC/C=C(C)/C=C/C=C(C)/C=C/C1=C(C)CCCC1(C)C
2. CS(=O)(=O)OCCCCOS(C)(=O)=O
3. C=C(C)[C@H]1CC=C(C)C(=O)C1

["inactive", "inactive", "inactive"]

For each of the molecules below, note its AC50.
1. CSCCC=O
2. C=C(C)C(=O)OCCOCCOCCOCCOC(=O)C(=C)C

inactive
inactive

---

read-out: Interleukin-8 (IL8), CXCL8 (gene 3576); assay: BSK_MyoF_IL8: BioMAP Diversity Plus: MyoF Assay for Interleukin-8 (IL8) Biomarker Activity (AID 2284261); conditions: primary human lung fibroblasts
The source made the active and inactive calls. Rule for the calls: active = hit-call score of the fitted dose curve at least 0.9, where 1 is the maximum; inactive = score below 0.9.
Please reply with one of these outcomes: 1.0 (active), 0.0 (inactive)

Record excerpt, results attached:
CC(=O)c1c(C)c([N+](=O)[O-])c(C(C)(C)C)c([N+](=O)[O-])c1C: 0.0
CC1(C)C2=CCCC(C)(C)[C@]23CC[C@H]1C3: 0.0
CC(C)(C)CC(C)(C)c1ccc(OCCOCC[N+](C)(C)Cc2ccccc2)cc1: 1.0
Clc1cc(Cl)c(-c2c(Cl)c(Cl)cc(Cl)c2Cl)cc1Cl: 1.0
CCCCN(CCCC)C(=O)N(CCCC)CCCC: 0.0

Name the outcome recorded for CN(c1nccc(=O)[nH]1)C1CCN(c2nc3ccccc3n2Cc2ccc(F)cc2)CC1 in the assay.
0.0

---

read-out: Monocyte Chemoattractant Protein-1 (MCP1), CCL2 (gene 6347); experiment: BSK_SAg_MCP1: BioMAP Diversity Plus: SAg Assay for Monocyte Chemoattractant Protein-1 (MCP1) Biomarker Activity (AID 2283090); conditions: primary human HUVEC with PBMC; actives raise or lower the signal
Active and inactive are the calls of the source. Rule for the calls: active = hit-call score of the fitted dose curve at least 0.9, where 1 is the maximum; inactive = score below 0.9.
Please reply with one of these outcomes: yes (1) (active), no (0) (inactive)

Clc1cc(Cl)c(-c2c(Cl)c(Cl)cc(Cl)c2Cl)cc1Cl: no (0)
CC(CN=Cc1ccccc1O)N=Cc1ccccc1O (stereo unspecified): no (0)
Oc1c(Cl)cc(Cl)c(Cl)c1Cc1c(O)c(Cl)cc(Cl)c1Cl: yes (1)

Name the outcome recorded for CC1(C)CCC[C@]2(C)[C@H]3CCO[C@]3(C)CC[C@@H]12 in the assay.
no (0)

Name the outcome recorded for COc1ccc(OC)c(N=Nc2c(O)ccc3ccccc23)c1 in the assay.
no (0)

Name the outcome recorded for CCC(C)c1cc([N+](=O)[O-])cc([N+](=O)[O-])c1OC(=O)OC(C)C (stereo unspecified) in the assay.
yes (1)

---

assay: CCTE_Shafer_MEA_acute_per_network_burst_spike_number_std: CCTE's Neural Acute Assay for Standard Deviation of Number of Spikes in a Network Burst, Shafer Lab (AID 2284020);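 note: fitted for decrease in spike-number SD versus DMSO so actives lower it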
The source made the active and inactive calls. Rule for the calls: active = hit-call score of the fitted dose curve at least 0.9, where 1 is the maximum; inactive = score below 0.9.
Please reply with one of these outcomes: active, inactive

Record excerpt, results attached:
Oc1c(Cl)cc(Cl)c(Cl)c1Cc1c(O)c(Cl)cc(Cl)c1Cl: active
C=CC(C)(O)CCC=C(C)C (stereo not given): inactive
CCOC(=O)C(C#N)=C(c1ccccc1)c1ccccc1: inactive
CN(C)C(=S)SC(=S)N(C)C: inactive

Could you now consider this next compound?
Name the outcome recorded for O=C(Nc1ccc2c(O)c(N=Nc3ccc(N=Nc4ccc(S(=O)(=O)O)cc4)cc3)c(S(=O)(=O)O)cc2c1)c1ccccc1 in the assay.
inactive

---

target: Heat shock factor protein 1 (Homo sapiens); assay: ATG_HSE_CIS: Attagene CIS-FACTORIAL HepG2 Assay for human Heat Shock Transcription Factor 1 (HSE) (AID 2282953); conditions: HepG2 HSE cis-reporter, Attagene RNA transcription; actives raise or lower the signal
Activity calls are given as the source filed them. The calls were made as follows: active = hit-call score of the fitted dose curve at least 0.9, where 1 is the maximum; inactive = score below 0.9.
Please reply with one of these outcomes: 1 (yes) (active), 0 (no) (inactive)

Record excerpt, results attached:
CCO/C=C1\N=C(c2ccccc2)OC1=O: 0 (no)
CCOC(=O)C(C#N)=C(c1ccccc1)c1ccccc1: 1 (yes)
COCCOCCOCCO: 0 (no)
Clc1cc(Cl)c(-c2c(Cl)c(Cl)cc(Cl)c2Cl)cc1Cl: 0 (no)
CCOc1ccc(NC(=O)CC(C)=O)cc1: 0 (no)
CC(C)CC(C)CC(O)CC(C)C (centres undefined): 0 (no)
COC(=O)c1ccc(OC)cc1: 0 (no)
O=P(O)(O)O: 0 (no)
CCCSc1ccc2nc(NC(=O)OC)[nH]c2c1: 0 (no)
OCCOCCN1CCN(C2=Nc3ccccc3Sc3ccccc32)CC1: 0 (no)

Name the outcome recorded for CC(C)(C)CC(C)(C)c1ccc(OCCOCC[N+](C)(C)Cc2ccccc2)cc1 in the assay.
0 (no)

Name the outcome recorded for C=C(C)C1CC=C(C)C(=O)C1 (centres undefined) in the assay.
0 (no)

Name the outcome recorded for Cc1cc(=O)oc2cc(N(C)C)ccc12 in the assay.
0 (no)

Name the outcome recorded for NCCNc1cccc2ccccc12 in the assay.
0 (no)
